- Test system: HCI-008 (organoid from a HER2-enriched breast cancer xenograft)
- measurement-protocol: CTG-3D luminescence at 96 h relative to day-0 seeding control (ratio to day 0); higher = more growth / less cytotoxicity; PDxO 3D drug screen, 96 h, CTG-3D normalised to day-0 seeding control.
- condition-summary: 0.00025 µM; days in culture: 228
In this section, each of the molecules is paired with its reported CTG-3D luminescence at 96 h.
Write no unit; give the number alone.

Some solved cases for reference:
CC(=O)O[C@H]1C(=O)[C@@]2(C)[C@H]([C@H](OC(=O)c3ccccc3)[C@]3(O)C[C@H](OC(=O)[C@H](O)[C@@H](NC(=O)c4ccccc4)c4ccccc4)C(C)=C1C3(C)C)[C@]1(OC(C)=O)CO[C@@H]1C[C@@H]2O [paclitaxel]	1.93
C=CC(=O)N1CCC[C@@H](n2nc(-c3ccc(Oc4ccccc4)cc3)c3c(N)ncnc32)C1 [ibrutinib]	1.84

Moving on to the next molecule.
get_value(item= C[C@H](NC(=O)CCC(F)(F)F)C(=O)N[C@@H]1C(=O)N(CCO)c2ncccc2-c2ccccc21 [crenigacestat] , readout=CTG-3D luminescence at 96 h) returns 1.66

###

- System: HCI-025 (organoid from a breast cancer xenograft)
- measurement-protocol: CTG-3D luminescence at 96 h relative to day-0 seeding control (ratio to day 0); higher = more growth / less cytotoxicity; PDxO 3D drug screen (set 2), 96 h, CTG-3D normalised to day-0 seeding control.
- condition-summary: 12.5 pM; days in culture: 189
In this section, each of the compounds is paired with its reported CTG-3D luminescence at 96 h.
Write no unit; give the number alone.

Some solved cases for reference:
CC(C)n1nc(-c2ccc3oc(N)nc3c2)c2c(N)ncnc21	2.16
CC(=O)O[C@@]12CO[C@@H]1C[C@H](O)[C@@]1(C)C(=O)[C@H](O)C3=C(C)[C@@H](OC(=O)[C@H](O)[C@@H](NC(=O)OC(C)(C)C)c4ccccc4)C[C@@](O)([C@@H](OC(=O)c4ccccc4)[C@H]21)C3(C)C	0.971
CC(=O)c1c(C)c2cnc(Nc3ccc(N4CCNCC4)cn3)nc2n(C2CCCC2)c1=O	2.77
Cc1c(CN2CCN(C(=O)[C@H](C)O)CC2)sc2c(N3CCOCC3)nc(-c3cnc(N)nc3)nc12	1.77

Moving on to the next compound.
get_value(item= `CO[C@H]1C[C@@H]2CC[C@@H](C)[C@@](O)(O2)C(=O)C(=O)N2CCCC[C@H]2C(=O)O[C@H]([C@H](C)C[C@@H]2CC[C@@H](OCCO)[C@H](OC)C2)CC(=O)[C@H](C)/C=C(\C)[C@@H](O)[C@@H](OC)C(=O)[C@H](C)C[C@H](C)/C=C/C=C/C=C/1C` , readout=CTG-3D luminescence at 96 h) returns 1.44

###

- System: HCI-001 (organoid from a triple-negative breast cancer xenograft)
- measurement-protocol: CTG-3D luminescence at 96 h relative to day-0 seeding control (ratio to day 0); higher = more growth / less cytotoxicity; PDxO 3D drug screen, 96 h, CTG-3D normalised to day-0 seeding control.
- condition-summary: 100 µM; days in culture: 260
parameter: CTG-3D luminescence at 96 h
Write no unit; give the number alone.

Some solved cases for reference:
C[C@H](NC(=O)CCC(F)(F)F)C(=O)N[C@@H]1C(=O)N(CCO)c2ncccc2-c2ccccc21 [crenigacestat]	1.12
COc1cccc2c1C(=O)c1c(O)c3c(c(O)c1C2=O)C[C@@](O)(C(=O)CO)C[C@@H]3O[C@H]1C[C@H](N)[C@H](O)[C@H](C)O1 [doxorubicin]	0.0518
O=C(O)C1(C(=O)O)CCC1.[NH2-].[NH2-].[Pt+2] [carboplatin]	0.569

get_value(item= C=CCn1c(=O)c2cnc(Nc3ccc(N4CCN(C)CC4)cc3)nc2n1-c1cccc(C(C)(C)O)n1 [adavosertib] , readout=CTG-3D luminescence at 96 h) returns 0.15

get_value(item= Cc1nc(-c2cn3c(n2)-c2ccc(-c4cnn(C(C)(C)C(N)=O)c4)cc2OCC3)n(C(C)C)n1 [taselisib] , readout=CTG-3D luminescence at 96 h) returns 0.019

get_value(item= COc1cc2c(Oc3ccc4[nH]c(C)cc4c3F)ncnc2cc1OCCCN1CCCC1 [cediranib] , readout=CTG-3D luminescence at 96 h) returns 0.00103
